Target: T1, human CD300LB on primary human macrophages (human, UniProt A8K4G0 18-201)
T1 sequence: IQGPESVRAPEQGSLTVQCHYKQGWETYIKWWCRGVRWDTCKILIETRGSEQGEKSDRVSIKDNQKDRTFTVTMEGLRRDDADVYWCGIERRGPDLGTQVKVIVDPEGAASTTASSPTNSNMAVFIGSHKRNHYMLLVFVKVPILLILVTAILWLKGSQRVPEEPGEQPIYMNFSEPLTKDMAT
Assay: flow cytometry, primary human macrophages donor 1278, 10 ug/mL antibody, isotype control subtracted
Observed property: gMFI
Please give the number followed by its unit.

Output measured gMFI for this item: anti-CD300LB antibody CD-06 (antibody, V domains shown) VH: QVQLVQSGAEVKKPGASVKVSCKASGYTFTTYAVHWVRQAPGQGLEWMGIVNPNSGGTNYAQKFQGRVTMTRDTSTSTVYMELSSLRSEDTAVYYCARDIVPMNNFYNYYYGMDVWGQGTTVTVSS VL: DIQMTQSPSSLSASVGDRVTITCRASQSISSYLNWYQQKPGKAPKLLIYATSTLQSGVPSRFSGSGSGTDFTLTISSLQPEDFATYYCQQSYRIPYTFGQGTKVEIK
169000 gMFI

Supply recorded gMFI for anti-CD300LB antibody CD-09 (antibody, V domains shown) VH: QVQLVQSGAEVKKPGASVKVSCKASGYTFTTYAVHWVRQAPGQGLEWMGIINPNSGGTNYAQKFQGRVTMTRDTSTSTVYMELSSLRSEDTAVYYCARDIVPMNNFYNYYYGMDVWGQGTTVTVSS VL: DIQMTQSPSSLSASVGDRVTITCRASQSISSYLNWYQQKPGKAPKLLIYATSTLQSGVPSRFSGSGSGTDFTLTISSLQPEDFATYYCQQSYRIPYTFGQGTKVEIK here.
13300 gMFI

Fill in gMFI for record anti-CD300LB antibody CD-05 (antibody, V domains shown) VH: QVQLVQSGAEVKKPGASVKVSCKASGYTFSRYYINWVRQAPGQGLEWMGWINPNSGGTNYAQKFQGRVTMTRDTSTSTVYMELSSLRSEDTAVYYCTTDQLRFGKTGPYYGMDVWGQGTTVTVSS VL: DIQMTQSPSSLSASVGDRVTITCRASQNIGTYLNWYQQKPGKAPKLLIYAASSLQSGVPSRFSGSGSGTDFTLTISSLQPEDFATYYCQQSYSDTLTFGGGTKVEIK
175000 gMFI

Note down gMFI recorded for anti-CD300LB antibody CD-07 (antibody, V domains shown) VH: QVQLVQSGAEVKKPGASVKVSCKASGYTFTNYRMHWVRQAPGQGLEWMGWINPNSGGTIYAQKFQGRVTMTRDTSTSTVYMELSSLRSEDTAVYYCARDLDYWGQGTLVTVSS VL: DIQMTQSPSSLSASVGDRVTITCQASQDISNYLNWYQQKPGKAPKLLIYGASSLQSGVPSRFSGSGSGTDFTLTISSLQPEDFATYYCQQSYSTPWTFGPGTKVEIK
211000 gMFI
